Hey, just so you know, these numbers are from the supplement of paper PMC11451515.

# System: NOMO1
# method: cell viability relative to DMSO control; higher = less cytotoxic
# setup.conditions: HPLM + 10% dialyzed FBS; 48 h; 0.000781 µM
readout.kind: cell viability (%)
Express your answer in %, writing the number without its unit.

Check out these entries, answers already filled in.
[[record]]
compound = "C#Cc1cccc(Nc2ncnc3cc(OC)c(OCCCCCCC(=O)NO)cc23)c1"
value_measured = 125

[[record]]
compound = "CC(=O)O[C@@]12CO[C@@H]1C[C@H](O)[C@]3(C)[C@@H]2[C@H](OC(=O)C4=CC=CC=C4)[C@]5(O)C[C@H](OC(=O)C(O)[C@@H](NC(=O)OC(C)(C)C)C6=CC=CC=C6)C(=C(/[C@@H](O)C3=O)C5(C)C)/C (stereo not given in full)"
value_measured = 32.4

[[record]]
compound = "COC1=CC=C(C=C1)C2CC(=N/N2C3=CC=C(C=C3)[S+](N)([O-])=O)\\C4=CC=CC=C4 (stereo not given)"
value_measured = 82.7

[[record]]
compound = "NC\\1=N\\C(=O)N(\\C=C1)[C@H]\\2[C@H](O)[C@H](O)C(=C2F)\\CO"
value_measured = 78.5

[[record]]
compound = "COc1cc(OC)c(NC(=O)Nc2cc(C)on2)cc1Cl"
value_measured = 97.6

[[record]]
compound = "CCCCCCCCCCCCCCCCCCOP(=O)([O-])OC1CC[N+](C)(C)CC1"
value_measured = 93.4

[[record]]
compound = "CN(C)CCCNC(=O)c1ccc(-c2cc(O)c3ncccc3c2)cc1"
value_measured = 113

[[record]]
compound = "Cc1cn(CCN2CCN(c3ccccc3-c3cc(C#N)cc(C(=O)NCCCN4CCCC4)c3)CC2)c2ccccc12"
value_measured = 103

[[record]]
compound = "OCCCNc1cc(-c2ccnc(Nc3cccc(Cl)c3)n2)ccn1"
value_measured = 106

[[record]]
compound = "Cc1[nH]c(/C=C2\\C(=O)Nc3ccc([S+](=O)([O-])Cc4c(Cl)cccc4Cl)cc32)c(C)c1C(=O)N1CCC[C@@H]1CN1CCCC1"
value_measured = 100


*Q* For the compound COC[C@H]1OC(=O)C2=COC3=C2[C@@]1(C)\C4=C(\[C@@H]5CC[C@H](O)[C@@]5(C)C[C@H]4OC(C)=O)C3=O , give its reported cell viability.
*A* 106

*Q* Identify the reported cell viability for the following entry. C[S+]([O-])c1ccc(-c2nc(-c3ccc(F)cc3)c(-c3ccncc3)[nH]2)cc1 (stereo not given)
*A* 78.8

*Q* Return cell viability (reported value) for this compound: CCN(C)C(=O)Oc1cccc([C@H](C)N(C)C)c1
*A* 110

*Q* // Input: O=C1N\2CCC3=C([NH]C4=C3C=CC=C4)C2=N/C5=CC=CC=C15 . Output its cell viability only.
*A* 111

*Q* Respond only with cell viability recorded for CO[C@@H]1C(N(C)C(=O)c2ccccc2)C[C@H]2O[C@]1(C)n1c3ccccc3c3c4c(c5c6ccccc6n2c5c31)C(=O)NC4=O (stereo not given in full)
*A* 82.2

*Q* Give reported cell viability value for NC(=O)Nc1cc(-c2ccc(CN3CCOCC3)cc2)sc1C(N)=O
*A* 122

*Q* Please indicate cell viability recorded for CN[C@@H]1C[C@H]2O[C@@](C)([C@@H]1OC)n1c3ccccc3c3c4c(c5c6ccccc6n2c5c31)C(=O)N[C@H]4O
*A* 81.2

*Q* Report cell viability, nothing else, for this compound: COc1ccc2c(c1OC)CN1CCc3cc4c(cc3C1C2)OCO4 (stereo not given)
*A* 86.4

*Q* Specify reported cell viability for the compound shown: CC(NCc1ccc2c(c1)[nH]/c(=N\C(=O)c1ccc(-c3cn[nH]c3)s1)n2CC(C)(C)O)C(C)(C)C (stereo not given)
*A* 110

*Q* Provide one value: measured cell viability of CC1(C)CC(O)CC(C)(C)N1[O]
*A* 100
